Measurement Target: HLA-B*39:01
Test Description: IEDB peptide-MHC binding, purified MHC/competitive/fluorescence; filed as Kd, often an IC50 or EC50 that approximates it; bounds were set here for any values at or beyond the usual limits of such assays
Condition Set: source organism: Vibrio parahaemolyticus AQ3810
Readout Type: Kd

Lookup: State, in one line, measured Kd of `SSRGYSAIW`
Found: ≥ 20 µM

* * *

Measurement Target: HLA-B*44:02
Test Description: IEDB peptide-MHC binding, purified MHC/direct/fluorescence; filed as Kd, often an IC50 or EC50 that approximates it; bounds were set here for any values at or beyond the usual limits of such assays
Condition Set: source organism: Coxiella burnetii
Readout Type: Kd

Lookup: State, in one line, measured Kd of `SYGNANVSF`
Found: ≥ 20 µM
